- targetSystem: GSK3β (Homo sapiens)
- Sequence (P49841 whole entry, species assumed): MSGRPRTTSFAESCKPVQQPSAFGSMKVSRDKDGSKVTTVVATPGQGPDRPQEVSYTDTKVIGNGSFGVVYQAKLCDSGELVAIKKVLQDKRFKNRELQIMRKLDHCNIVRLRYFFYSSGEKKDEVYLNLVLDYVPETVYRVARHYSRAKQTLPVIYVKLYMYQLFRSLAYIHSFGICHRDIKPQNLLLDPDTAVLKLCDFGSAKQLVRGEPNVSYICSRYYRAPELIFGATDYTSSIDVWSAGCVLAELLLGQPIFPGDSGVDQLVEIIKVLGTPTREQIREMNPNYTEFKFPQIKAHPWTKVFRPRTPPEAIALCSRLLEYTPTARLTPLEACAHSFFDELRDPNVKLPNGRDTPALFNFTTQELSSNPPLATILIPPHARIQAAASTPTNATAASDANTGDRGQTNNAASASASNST
- assay: GSK3beta assay (SPA, biotinylated phosphorylated CREB peptide, ATP-P33)
- Assay type: biochemical
- measurementSetup: −log IC50 (M); given as ranges (>8; 7-8; <7); read-out: pIC50 (GSK3beta) (converted)
- Description: GSK3beta assays were performed at room temperature in a 100 μl reaction volume of 25 mM Tris (ph 7.4) containing 10 mM MgCl2.6H2O 1 mM DTT, 0.1 mg/ml BSA, 5% glyceol and containing 5.7 ng/μl GSK3β, 5 μM biotinylated phosphorylated CREB peptide, 1 μM APT, 0.85 μCi/ml ATP-P^33 and a suitable amount of a test compound of formula (I). After one hour, the reaction was terminated by adding 70 μl of Stop mix (0.1 mM APT, 5 mg/ml streptavidin coated PVT SPA bead pH 11.0). […]
observedProperty: IC50

Solved cases below.
{"smilesString": "COCc1cccc(-n2nnc3cnc(Nc4cccc(S(=O)(=O)NCCNC(C)=O)c4)nc32)c1", "IC50": "1e-08 to 1e-07 M"}
{"smilesString": "COCCOc1cccc(-n2nnc3cnc(Nc4cccc(CNC(=O)OC(C)(C)C)c4)nc32)c1", "IC50": "1e-08 to 1e-07 M"}
{"smilesString": "CC(C)CC(=O)NCc1cccc(-n2nnc3cnc(Nc4ccc(C(=O)O)cc4)nc32)c1", "IC50": "1e-08 to 1e-07 M"}
{"smilesString": "NC(=O)c1ccc(Nc2ncc3nnn(-c4cccc(F)c4)c3n2)cc1", "IC50": "< 1e-08 M"}
{"smilesString": "OCCc1cccc(Nc2ncc3nnn(-c4cccc(CCO)c4)c3n2)c1", "IC50": "< 1e-08 M"}
{"smilesString": "CNC(=O)c1ccc(Nc2ncc3nnn(-c4cccc(F)c4)c3n2)cc1", "IC50": "< 1e-08 M"}
{"smilesString": "NS(=O)(=O)c1cccc(Nc2ncc3nnn(-c4cccc(-c5cnco5)c4)c3n2)c1", "IC50": "< 1e-08 M"}
{"smilesString": "COCc1cccc(-n2nnc3cnc(Nc4cccc(C(=O)O)c4)nc32)c1", "IC50": "1e-08 to 1e-07 M"}
{"smilesString": "CC(C)CC(=O)NCc1cccc(-n2nnc3cnc(Nc4cccc(C#N)c4)nc32)c1", "IC50": "< 1e-08 M"}
{"smilesString": "CS(=O)(=O)Nc1cccc(Nc2ncc3nnn(-c4cccc(S(N)(=O)=O)c4)c3n2)c1", "IC50": "< 1e-08 M"}

Prompt: I'd like to know its IC50. The compound in question is NC(=O)CNS(=O)(=O)c1cccc(Nc2ncc3nnn(-c4cccc(F)c4)c3n2)c1
Completion: < 1e-08 M

Prompt: I'd like to know its IC50. The compound in question is CC(C)CC(=O)NCc1cccc(-n2nnc3cnc(Nc4ccc(CCO)cc4)nc32)c1
Completion: 1e-08 to 1e-07 M

Prompt: I'd like to know its IC50. The compound in question is Nc1cccc(Nc2ncc3nnn(-c4cccc(F)c4)c3n2)c1
Completion: < 1e-08 M

Prompt: I'd like to know its IC50. The compound in question is COCCOCc1cccc(-n2nnc3cnc(Nc4ccc(C(N)=O)cc4)nc32)c1
Completion: < 1e-08 M

Prompt: I'd like to know its IC50. The compound in question is COc1ccc(Nc2ncc3nnn(-c4ccccc4)c3n2)cn1
Completion: < 1e-08 M

Prompt: I'd like to know its IC50. The compound in question is CNC(=O)c1ccc(Nc2ncc3nnn(-c4cccc(COC)c4)c3n2)cc1
Completion: < 1e-08 M

Prompt: I'd like to know its IC50. The compound in question is OCCc1ccc(Nc2ncc3nnn(-c4cccc(F)c4)c3n2)cc1
Completion: < 1e-08 M
